Experiment: anti-His antibody binders, primary screen, artefact control for SMM control protein annotation, biochemical, small-molecule microarray, 635 nm fluorescence (AID 1128);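 note: score merges feature fluorescence with signal-to-noise for each printed compound spot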
Settings: anti-His Alexa647 antibody binding, higher = more signal
Think of 0.3 as a floor: if composite z-score stands on it or above, it is criterion met; beneath it, criterion not met.

Is composite z-score for C#CCCCON=C1C[C@@H](O)[C@@H](O)[C@@H]2[C@@H]3C(=O)N(C(C)(C)C)C(=O)[C@@H]3CC[C@H]12 at or above 0.3?
criterion not met

And then CCOC(=O)[C@H](Cc1ccccc1)NC(=O)CCC1CC(OC(=O)NCc2ccc3c(c2)OCO3)CC2(CCCC(COC(=O)NCCc3ccccc3OC)O2)O1 (some centres not stated) , what is it?
criterion met

And then CCOC(=O)CCN1C(=O)[C@H]2[C@H]3[C@H](O)[C@H](O)CC(=NOCC(C)C)[C@H]3CC[C@H]2C1=O , what is it?
criterion not met

And then CCOC(=O)[C@H](Cc1ccccc1)NC(=O)CCC1CC(OC(=O)NCc2cccc3ccccc23)CC2(CCCC(COC(=O)NCc3cccc(C(F)(F)F)c3)O2)O1 (some centres not stated) , what is it?
criterion met

And then CCOC(=O)NN=C1C[C@@H](O)[C@@H](O)[C@@H]2[C@@H]3C(=O)N(Cc4ccccc4)C(=O)[C@@H]3CC[C@H]12 , what is it?
criterion met

And then CC(C)=CCCC(C)=CCON=C1C[C@@H](O)[C@@H](O)[C@@H]2[C@@H]3C(=O)N(C(C)(C)C)C(=O)[C@@H]3CC[C@@H]12 , what is it?
criterion met

And then CCc1cc2c(nc1CC)CCN(CCC(C)=NOC[C@H]1O[C@H](c3ccccc3)C=C[C@@H]1Oc1ccc(OC)cc1)C2 , what is it?
criterion not met

And then CO[C@H]1COC(=O)[C@H](C)NC(=O)[C@@H](C)COC(=O)[C@H]2CCCN2C(=O)CC=C[C@H]1C , what is it?
criterion not met

And then CON=Cc1ccc(C(=O)N2[C@H](c3ccc(C)cc3)[C@@H](C)CC[C@H]2C(=O)OC)cc1 , what is it?
criterion met

And then COc1ccc(O[C@H]2C=C[C@@H](c3ccccc3)O[C@@H]2COC(=O)CCC(C)=NOC(C)CN2CCCc3nc(C)c(C)cc32)cc1 (some centres not stated) , what is it?
criterion not met

And then C[C@H]1CC[C@H]2C(=O)O[C@H](COc3ccc(C(C)(C)C)cc3)CN2[C@@H]1c1ccc(Br)cc1 , what is it?
criterion met

And then C[C@@H]1CC[C@H]2C(=O)O[C@@H](Cc3ccccc3)CN2[C@H]1c1ccc(Br)cc1 , what is it?
criterion met

And then Cc1ccc(S(=O)(=O)N[C@@H]2COC(=O)[C@@H](C)COC(=O)CC=C[C@H]2C)cc1 , what is it?
criterion not met

And then Cc1cc2c(c(=O)o1)[C@@H](O)[C@H]1O[C@H]1C2=O , what is it?
criterion met

And then CCOC(=O)[C@H](CC(C)C)NC(=O)CCC1CC(OC(=O)NCCc2ccc(F)cc2)CC2(CCCC(COC(=O)NCCc3ccc(Cl)cc3)O2)O1 (some centres not stated) , what is it?
criterion met

And then CCOC(=O)NN=C1C[C@@H](O)[C@@H](O)[C@@H]2[C@@H]3C(=O)N(Cc4ccc5c(c4)OCO5)C(=O)[C@@H]3CC[C@H]12 , what is it?
criterion not met

The reported numbers originate from PubChem BioAssay.
